Biological target: 人PD-L1 on 293T-h-PDL1 cells (HEK293 stably expressing PD-L1) (human) (UniProt Q9NZQ7)
Experiment: FACS, hybridoma supernatant on 293T-h-PDL1 cells
The binders listed here are annotated with their EC50.
Report only the number, with the unit µg/mL understood.

Guide cases for EC50, answers given:
// returns reported EC50 for input 鼠抗体13C9 (antibody, from another filing, V domains shown) VH: QVQLKQSGAGLVKPGASVKLSCKASGYIFTEYIIHWVKQRSGQGLEWIGWFYPGSDNIKYNEKFKDKATLTADKSSSTVYMELSRLTSEDSAVYFCARHETGYFFDYWGQGTTLTVSS VL: DIVITQSPAIMSASPGEKVTMTCSASSSVSKMNWYQQKSGTSPKRWIYDTSKLASGVPSRFSGSGSGTSYSLTISSMEAEDAATYYCQQWSSNPLTFGSGTKLELKR
0.44

Now this one: 鼠抗体15G10 (antibody, from another filing, V domains shown) VH: QVQLKQSGPELVKPGASVKTSCKASGYTFTNYVVHWVKQNPGQGLEWIGYVNPNNDGTIFNEKFKDKAILTSDKSSSTAYMELSSLTSEDSAVYYCARSPFAHWGQGTLVTVSA VL: QIVLTQSPASLTVSLGQRATISCSASESVDFYGTSLMQWFQQKPGQPPKLLVYTASNVDSEVPARFSGSGSGTDFSLNIHPVEEDDIAMYFCHQTRKVPYTFGGGTKLEIK
1.45

// next item, EC50 requested
// returns reported EC50 for input 鼠抗体28B1 (antibody, from another filing, V domains shown) VH: QVQLKQSGAELVKPGASVMLSCTASAFNIDDTYIHWVKQRPEQGLEWIGRIDPANGNTDYDPECQGKATITTDMSSNTAYLQLSSLTSEDTAVYFCARGLRLPGLVYWGRGTLVTVSA VL: DIQMTQTTSSLSASLGDRVTISCRASQDISNYLNWYQQKPDGTVKLLIYYTSILYSGVPSRFSGSGSGTDYSLTINTLEEEDIATYFCQQGNTLPWTFGGGTKLEIIR
0.39
